This collection of values is drawn from PubChem BioAssay (NCI).

System: MALME-3M melanoma
Test: NCI tumour cell line growth inhibition, 48 h; in the data active means GI50 below about 0.43 µM; inactive means the rest
Your reply should match one of these outcome classes. active, inactive

Study these solved cases before continuing.
{"compound": "CC(=O)Nc1sc2c(c1-c1nc3ccccc3s1)CNC2", "category.label": "inactive"}
{"compound": "COc1ccc(-c2nocc2-c2cc(OC)c(OC)c(OC)c2)cc1", "category.label": "inactive"}
{"compound": "Cc1ccc(NC(=O)c2nc(S(C)=O)oc2-c2ccc(F)cc2)cc1Nc1nccc(-c2cccnc2)n1 (centres undefined)", "category.label": "inactive"}
{"compound": "CCN1CCN(C(=O)[C@]23CCC(C)(C)C[C@@H]2C2=CC[C@@H]4[C@@]5(C)C/C(=C/c6cccnc6)C(=O)C(C)(C)[C@@H]5CC[C@@]4(C)[C@]2(C)CC3)CC1", "category.label": "inactive"}
{"compound": "CSc1nc2c(c(=O)[nH]1)C(c1ccc(Cl)cc1)C1=C(N2)/C(=C/c2ccc(Cl)cc2)CNC1 (centres undefined)", "category.label": "inactive"}
{"compound": "COc1ccc(CNc2nc(NCc3ccc(OC)cc3)c3n[nH]c(C(C)C)c3n2)cc1", "category.label": "inactive"}
{"compound": "C[C@]12CC[C@H]3[C@@H](C[C@@H]4N=C(c5ccc(O)cc5)S[C@@]45C[C@H](O)CC[C@]35C)[C@@H]1CC[C@@H]2O", "category.label": "inactive"}
{"compound": "Cc1ccc(S(=O)(=O)n2cc(-c3nnnn3-c3ccc(Cl)cc3)c(=O)c3ccccc32)cc1", "category.label": "inactive"}

Query :: Which outcome was assigned to CC/C=C\C/C=C\C[C@H]1C/C=C2/C(=O)C=C[C@H]2C/C=C\CCC(=O)O1 in this test?
Result :: inactive

Query :: Consider next the compound CC(C)[C@@H]1CC[C@@H]2[C@@H]1[C@H](OC(=O)/C=C/c1ccccc1)[C@]1(C(C)C)C[C@@H](OC(=O)CO)[C@@]2(C)O1 in the same way.
Result :: inactive

Query :: Thanks! And CC[C@@]1(O)C(=O)OCc2c1cc1n(c2=O)Cc2c-1nc1ccccc1c2/C=N/OC(C)(C)C ?
Result :: active

Query :: # repeat for C=C1N(C)c2ccc(Cl)cc2C1(C)C
Result :: inactive

Query :: How about this compound: COc1ccc(/C=C/C(=O)c2ccc(Nc3ccnc4cc(Cl)ccc34)cc2)cc1
Result :: inactive

Query :: Likewise for O=C(CN1CCN(c2ccc(Cl)cc2)CC1)N1CCN(c2nnc(-c3ccccc3)c(-c3ccccc3)n2)CC1 ?
Result :: inactive

====

Tested on: SF-268 CNS
Experiment: NCI tumour cell line growth inhibition, 48 h
Entries annotated with measured TGI

{"compound": "CCCCCC(/C=N/N)C(O)(C(F)(F)F)C(F)(F)F (stereo not given)", "TGI": "5.92 µM"}
{"compound": "CC/C=C\\C/C=C\\C[C@H]1C/C=C2/C(=O)C=C[C@H]2C/C=C\\CCC(=O)O1", "TGI": "10.4 µM"}
{"compound": "S=C(Nc1ccccc1)N1N=C2c3ccccc3CC[C@H]2[C@@H]1c1ccccc1", "TGI": "> 100 µM"}
{"compound": "CN(C)/C=N/S(=O)(=O)c1nn2c(C=O)c(-c3ccc(-c4ccc([N+](=O)[O-])cc4)o3)nc2s1", "TGI": "> 29 µM"}

Let us examine a further case.
Query :: Any idea what TGI was measured for CC[C@@]1(O)C(=O)OCc2c1cc1n(c2=O)Cc2c-1nc1ccccc1c2/C=N/OC(C)(C)C ?
Result :: 2.8 µM

====

Test system: SF-539 CNS
Experiment: NCI tumour cell line growth inhibition, 48 h
*1 amine or outer side, *2 acyl side, *3 side chain or, on linkers, in order; H or OH if unused. Where a SMILES comes first, the peptide text is derived from it. Bridges are numbered along the chain shown (N, C = ends). [ ]: non-standard residue; d: D form. The star is where a group is joined. Phe(3-Me) = Cc1cccc(C[C@H](N)C(=O)O)c1; NH(4-Cl-2-F-phenyl) = Fc1cc(Cl)ccc1N*; Pro(4R-Me) = C[C@H]1CN[C@H](C(=O)O)C1; Propanoyl(3-NMe2) = CN(C)CCC(=O)*; Hyp = O=C(O)[C@@H]1C[C@@H](O)CN1; aThr = C[C@H](O)[C@H](N)C(=O)O; Pip = O=C(O)[C@@H]1CCCCN1; CO = O=C([*:1])[*:2]
measurement.name: TGI (µM)
Write down the numeric answer in µM and omit the unit.

{"molecule": "CCSc1nc2n(c(=S)n1)CCN2C", "system.name": "SF-539 CNS", "unit.text": "µM", "TGI": 58.9}
{"molecule": "N#CC(c1cc(Cl)ncn1)c1nc2ccccc2s1 (centres undefined)", "system.name": "SF-539 CNS", "unit.text": "µM", "TGI": 50.5}
{"molecule": "NC[C@@](O)(c1ccc(Cl)cc1)c1ccc(-c2cn[nH]c2)cc1", "system.name": "SF-539 CNS", "unit.text": "µM", "TGI": 2.36}
{"molecule": "N#CC1=C(c2ccccc2)C(O)(c2ccccc2)NC1=O (centres undefined)", "system.name": "SF-539 CNS", "unit.text": "µM", "TGI": 63.3}

Query :: Quick one: TGI for Cc1cccc(C[C@H](NC(=O)Nc2ccc(Cl)cc2F)C(=O)N[C@@H]2C(=O)N3C[C@H](OC(=O)CCN(C)C)C[C@H]3C(=O)N3CCCC[C@H]3C(=O)N[C@@H](C)C(=O)N3C[C@H](C)C[C@H]3C(=O)O[C@H]2C)c1 ({NH(4-Cl-2-F-phenyl)-CO}-[Phe(3-Me)][aThr][Hyp](Propanoyl(3-NMe2))[Pip]A[Pro(4R-Me)]; ester 2-C) ?
Result :: 2.17

Query :: Repeat for the following molecule: COc1cc(C=O)c(-c2cc3c(cc2C=O)OCO3)c(OC)c1OC
Result :: 188

====

Tested on: KM12 colon
Experiment: NCI tumour cell line growth inhibition, 48 h
Parameter: TGI. Scope: all listed entries.

{"compound": "COC(Cc1ccccc1)NC(C)=O (stereo not given)", "system.name": "KM12 colon", "recorded.result": "> 100 µM"}
{"compound": "O=C1OC2C(O)C(=O)OC2C1O (stereo not given)", "system.name": "KM12 colon", "recorded.result": "> 100 µM"}
{"compound": "Cc1cc2c(cc1C)[n+](=O)c(C(=O)/C=C/c1ccccc1Cl)c(C)n2[O-]", "system.name": "KM12 colon", "recorded.result": "96.2 µM"}
{"compound": "O=C(N/C(=C\\c1ccccc1)C1Nc2ccccc2C(=O)O1)c1ccccc1 (stereo not given)", "system.name": "KM12 colon", "recorded.result": "31.2 µM"}
{"compound": "COC1(C)C=NCC(C)(C)NC(=O)C(C)(OC)C=NCC(C)(C)NC1=O (stereo not given)", "system.name": "KM12 colon", "recorded.result": "> 10 µM"}
{"compound": "COC(=O)C1CCC(=O)N1C(c1ccc2c(c1)OCO2)c1ccc2c(c1)OCO2 (stereo not given)", "system.name": "KM12 colon", "recorded.result": "> 100 µM"}
{"compound": "CCn1cnc2c(NC(C)=O)ncnc21", "system.name": "KM12 colon", "recorded.result": "> 100 µM"}
{"compound": "Cc1ccccc1/C=C1\\CN(C(=O)OC(C)(C)C)C/C(=C\\c2ccccc2C)C1=O", "system.name": "KM12 colon", "recorded.result": "4.68 µM"}

Query :: Quick check: TGI of C/C(=N\NC(=O)c1ccncc1)c1ccc(O)cc1O ?
Result :: > 100 µM

Query :: What do you have for CN(C)/C=N/S(=O)(=O)c1nn2c(C=O)c(-c3ccc(-c4ccc([N+](=O)[O-])cc4)o3)nc2s1 ?
Result :: > 49.1 µM

Query :: Now consider c1ccc2c(c1)C(=Nc1ccc(N=C3c4ccccc4-c4ccccc43)cc1)c1ccccc1-2 .
Result :: > 100 µM

Query :: Would you mind doing N=c1oc2c(Cl)cc(Cl)cc2cc1C(=O)Nc1ccccn1 as well?
Result :: > 100 µM

Query :: Now this one: CC[C@@]1(O)C(=O)OCc2c1cc1n(c2=O)Cc2c-1nc1ccccc1c2/C=N\NC(=O)C(C)N (stereo not given in full)
Result :: > 100 µM

Query :: For CCN(CC)C1=Nc2ccccc2-n2c(C)cnc2C1 then?
Result :: > 100 µM

Query :: One more compound: O=C([O-])c1ccccc1Nc1ccccc1[O-].[Ni+3].[OH3+].[OH3+].[OH3+]
Result :: > 100 µM

Query :: Same for C=C1C(=O)OC2/C=C(\C)C3OC3/C=C(/C(=O)OC)C(OC(C)=O)C(OC(=O)C(C)(O)C(C)OC(C)=O)C12 (stereo not given)
Result :: 6.36 µM
